B1: library; a variant is named by its letters at N, in order (parent)
chain: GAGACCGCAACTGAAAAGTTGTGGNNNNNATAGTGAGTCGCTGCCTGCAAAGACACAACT

Variants of: B1
Assay summary: ligation selection enrichment (abundance after / before one-round selection) (fold); higher = more template-directed ligation activity
Reported conditions: with T7Psub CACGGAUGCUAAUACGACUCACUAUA; MgCl2 25 mM; 42 °C; 4 h; pH 8.5
Outcome measure: ligation selection enrichment

INSERT INTO assay_data (residue_change, reported_value) VALUES
  ('TTGGA', 0.294),
  ('TATGC', 0.29),
  ('AGTGG', 0.414),
  ('CGTGT', 0.172),
  ('GAGGG', 0.345),
  ('TGGGG', 0.228),
  ('CAATC', 0.136),
  ('ATTGT', 0.543),
  ('AGTGC', 0.186),
  ('TTAAG', 0.69),
  ('TTGCT', 0.947),
  ('TGAAA', 0.326),
  ('GCAGT', 0.0918),
  ('AGCGC', 0.269),
  ('TGCAG', 0.216),
  ('GTGGG', 0.31),
  ('ATCCC', 0.168),
  ('TTTTT', 0.314),
  ('ACTAC', 0.128),
  ('AAGTG', 0.294),
  ('GTTTA', 0.446),
  ('CAGAC', 0.374),
  ('AAATT', 0.446),
  ('CGGCT', 0.432),
  ('TACTA', 0.168),
  ('AAGCC', 0.188),
  ('GCGAG', 1.37),
  ('ACTGG', 0.421),
  ('GTGAG', 1.24),
  ('GGCAT', 5.15),
  ('CGCGA', 1.1),
  ('AGATA', 0.533),
  ('GGCGA', 1.52),
  ('ACGCA', 0.248),
  ('AGGCA', 0.255),
  ('CATCC', 0.247);

Where these numbers come from: the supplement of paper PMC10219994
